The origin of these recorded values is ChEMBL document CHEMBL5614396.

In this section we review reported Activity values for a set of compounds.
system: THP-1; assay: Vaccine adjuvant activity in human THP-1 cells expressing CD63-Turbo-luciferase and CD9-Emerald green fluorescent protein reporter assessed as extracellular vesicle release by measuring reporter activation at 10 uM incubated for 48 hrs by TurboLuc luciferase based chemiluminescence assay (reference value: 0%); assay type: functional
Provide the reading as a plain figure in %.

[[record]]
smiles_structure = "Cc1sc(NS(=O)(=O)c2cccc3nsnc23)c(-c2nc(C#N)no2)c1C"
number = 1.5

[[record]]
smiles_structure = "CCOC(=O)c1c(NS(=O)(=O)c2cccc3nsnc23)sc2c1CCNC2"
number = 0.1

[[record]]
smiles_structure = "CCOC(=O)c1c(NS(=O)(=O)c2cccc3nsnc23)sc(-c2ccco2)c1C"
number = 67.1


Activity on THP-1 for CCOC(=O)c1c(NS(=O)(=O)c2cccc3nsnc23)sc(-c2cccs2)c1C is 17.9

Activity on THP-1 for CCNC(=O)c1c(NS(=O)(=O)c2cccc3nsnc23)sc(C)c1C is -0.6

Activity on THP-1 for CCOC(=O)c1ccsc1NS(=O)(=O)c1cccc2nsnc12 is 60.9

Activity on THP-1 for CCOC(=O)c1c(NS(=O)(=O)c2cccc(N)c2N)sc(C)c1C is 2.4

Activity on THP-1 for CCOC(=O)c1nc(C)sc1NS(=O)(=O)c1cccc2nsnc12 is 1.7

Activity on THP-1 for CCOC(=O)c1c(NS(=O)(=O)c2cccc3cccnc23)sc(C)c1C is 60.4

Activity on THP-1 for CCc1noc(-c2c(NS(=O)(=O)c3cccc4nsnc34)sc(C)c2C)n1 is 0.4

---

In this section we review reported Activity values for a set of molecules.
system: THP-1; test: Vaccine adjuvant activity in human THP-1 cells expressing CD63-Turbo-luciferase and CD9-Emerald green fluorescent protein reporter assessed as extracellular vesicle release by measuring reporter activation at 10 uM incubated for 48 hrs by TurboLuc luciferase based chemiluminescence assay (reference value: 0%); format: functional
Provide the reading as a plain figure in %.

See these solved cases before continuing.
[[record]]
smiles_structure = "Cc1sc(NS(=O)(=O)c2cccc3nsnc23)c(C(=O)OCc2ccccc2)c1C"
unit_name = "%"
number = 169.9

[[record]]
smiles_structure = "CCOC(=O)c1c(NS(=O)(=O)c2cccc3nc[nH]c23)sc(C)c1C"
unit_name = "%"
number = 2

[[record]]
smiles_structure = "CCOC(=O)c1c(NS(=O)(=O)c2cccc3nsnc23)sc(-c2ccccn2)c1C"
unit_name = "%"
number = 30.5

[[record]]
smiles_structure = "Cc1sc(NS(=O)(=O)c2cccc3nsnc23)c(C(=O)OCCC(C)C)c1C"
unit_name = "%"
number = 141.6

[[record]]
smiles_structure = "Cc1sc(NS(=O)(=O)c2cccc3nsnc23)c(C(=O)Oc2ccccc2)c1C"
unit_name = "%"
number = 39.8

[[record]]
smiles_structure = "CCOC(=O)c1c(NS(=O)(=O)c2cccc3nc(C)[nH]c23)sc(C)c1C"
unit_name = "%"
number = 3.4

[[record]]
smiles_structure = "CCOC(=O)c1c(C)csc1NS(=O)(=O)c1cccc2nsnc12"
unit_name = "%"
number = 99

[[record]]
smiles_structure = "CCOC(=O)c1c(NC(=O)c2cccc3nsnc23)sc(C)c1C"
unit_name = "%"
number = -0.4

[[record]]
smiles_structure = "CCOC(=O)c1c(NS(=O)(=O)c2cccc3nsnc23)sc(Br)c1C"
unit_name = "%"
number = 81.1

[[record]]
smiles_structure = "CCOC(=O)c1c(NS(=O)(=O)c2ccc(Br)c3nsnc23)sc(C)c1C"
unit_name = "%"
number = 70.3


Value of Activity reported for the molecule Cc1cc(NS(=O)(=O)c2cccc3nsnc23)sc1C is -0.9

Value of Activity reported for the molecule CCOC(=O)c1c(NS(=O)(=O)c2cccc3nsnc23)sc2ccccc12 is 98.3

Value of Activity reported for the molecule CCOC(=O)c1c(NS(=O)(=O)c2ccc(Br)c3ccncc23)sc(C)c1C is 16.1

Value of Activity reported for the molecule Cc1sc(NS(=O)(=O)c2cccc3nsnc23)c(C(=O)OCCCCCNC(=O)OC(C)(C)C)c1C is 111.5

Value of Activity reported for the molecule CCOC(=O)c1c(NS(=O)(=O)c2cccc3nc(O)[nH]c23)sc(C)c1C is 0.4

Value of Activity reported for the molecule CCOC(=O)c1c(NS(=O)(=O)c2cccc3nsnc23)sc(-c2ccoc2)c1C is 114.4

Value of Activity reported for the molecule CCOC(=O)c1c(NS(=O)(=O)c2cccc3nsnc23)sc(-c2ccccc2)c1C is 338.9

Value of Activity reported for the molecule CCOC(=O)c1cc(C)ccc1NS(=O)(=O)c1cccc2nsnc12 is 10.8

Value of Activity reported for the molecule CCOC(=O)c1c(NS(=O)(=O)c2cccc3nsnc23)sc(C)c1-c1ccccc1 is 49.6

Value of Activity reported for the molecule Cc1sc(NS(=O)(=O)c2cccc3nsnc23)c(C(=O)OCCCCCN)c1C is 0.7

Value of Activity reported for the molecule CCOC(=O)c1c(NS(=O)(=O)c2ccccc2)sc(C)c1C is 0.7

Value of Activity reported for the molecule Cc1sc(NS(=O)(=O)c2cccc3nsnc23)c(C(=O)OC(C)C)c1C is 149.2

Value of Activity reported for the molecule CCOC(=O)c1c(NS(=O)(=O)c2cccc3nonc23)sc(C)c1C is 4.7

Value of Activity reported for the molecule CCOC(=O)c1c(C)cccc1NS(=O)(=O)c1cccc2nsnc12 is 1

---

test system: THP-1; experiment: Vaccine adjuvant activity in human THP-1 cells expressing CD63-Turbo-luciferase and CD9-Emerald green fluorescent protein reporter assessed as extracellular vesicle release by measuring reporter activation at 10 uM incubated for 48 hrs by TurboLuc luciferase based chemiluminescence assay (reference value: 0%); assay type: functional
In this section we review reported Activity values for a set of compounds.
Provide the reading as a plain figure in %.

[[record]]
smiles_structure = "Cc1sc(NS(=O)(=O)c2cccc3nsnc23)c(C(=O)OC(C)(C)C)c1C"
unit_name = "%"
number = 128.8

[[record]]
smiles_structure = "CCOC(=O)c1c(NS(=O)(=O)c2cccc3ccncc23)sc(C)c1C"
unit_name = "%"
number = 3.6


Attention now shifts to the item below.
Value of Activity reported for the compound CCOC(=O)c1c(NS(=O)(=O)c2cccc3n[se]nc23)sc(C)c1C is 210.4

---

experiment: Cytotoxicity against Balb/c mouse BMDC assessed as cell viability at 10 uM incubated for 20 hrs by MTT assay (reference value: 100 +/-0.6%); assay type: toxicity, cell-based; conditions: BMDC (bone marrow-derived dendritic cells), read-out: Activity
In this section we review reported viability at 20 h, 10 µM values for a set of compounds.

[[record]]
smiles_structure = "CCOC(=O)c1c(NS(=O)(=O)c2ccccc2)sc(C)c1C"
endpoint = "viability at 20 h, 10 µM"
result = "102%"

[[record]]
smiles_structure = "CCOC(=O)c1c(NS(=O)(=O)c2cccc3nonc23)sc(C)c1C"
endpoint = "viability at 20 h, 10 µM"
result = "105%"

[[record]]
smiles_structure = "CCOC(=O)c1c(NS(=O)(=O)c2cccc3nsnc23)sc(C)c1-c1ccccc1"
endpoint = "viability at 20 h, 10 µM"
result = "94.2%"

[[record]]
smiles_structure = "CCOC(=O)c1cc(C)sc1NS(=O)(=O)c1cccc2nsnc12"
endpoint = "viability at 20 h, 10 µM"
result = "93%"

[[record]]
smiles_structure = "CCOC(=O)c1sc(C)c(C)c1NS(=O)(=O)c1cccc2nsnc12"
endpoint = "viability at 20 h, 10 µM"
result = "130%"


Value of viability at 20 h, 10 µM reported for the compound CCOC(=O)c1c(NS(=O)(=O)c2cccc3nsnc23)sc(-c2ccccn2)c1C is 68.1%

Value of viability at 20 h, 10 µM reported for the compound CCOC(=O)c1c(NS(=O)(=O)c2cccc3ccncc23)sc(C)c1C is 87.5%

Value of viability at 20 h, 10 µM reported for the compound Cc1sc(NS(=O)(=O)c2cccc3nsnc23)c(C(=O)OCCC(C)C)c1C is 81.2%

Value of viability at 20 h, 10 µM reported for the compound CCOC(=O)c1c(NS(=O)(=O)c2cccc3nsnc23)sc(-c2cccs2)c1C is 77%

Value of viability at 20 h, 10 µM reported for the compound Cc1sc(NS(=O)(=O)c2cccc3nsnc23)c(C(=O)OCCCCCN)c1C is 103%

---

system: BMDC; assay: Vaccine adjuvant activity in Balb/c mouse BMDC assessed as increase in IL-12 production at 10 uM incubated for 20 hrs by ELISA (reference value: 1.35 +/-0.1 ng/ml); type: functional
endpoint: Activity (ng/mL)
Provide the reading as a plain figure in ng/mL.

See these solved cases before continuing.
[[record]]
smiles_structure = "CCOC(=O)c1cc(C)ccc1NS(=O)(=O)c1cccc2nsnc12"
unit_name = "ng/mL"
number = 1.22

[[record]]
smiles_structure = "CCOC(=O)c1c(NS(=O)(=O)c2cccc3nsnc23)sc2c1CCC2"
unit_name = "ng/mL"
number = 1.85

[[record]]
smiles_structure = "CCOC(=O)c1c(NS(=O)(=O)c2cccc3nc[nH]c23)sc(C)c1C"
unit_name = "ng/mL"
number = 1.51

[[record]]
smiles_structure = "CCOC(=O)c1c(NS(=O)(=O)c2cccc3nsnc23)sc(-c2ccccc2)c1C"
unit_name = "ng/mL"
number = 3.79


Attention now shifts to the item below.
Value of Activity reported for the compound CCOC(=O)c1c(N(C)S(=O)(=O)c2cccc3nsnc23)sc(C)c1C is 1.19
